So I've got a bunch of compounds here, and I need their GI50 values.
biological target: PIM1 transgenic cells (Ba/F3) (Homo sapiens, UniProt P11309); test: Proliferation inhibitory effect on PIM1 transgenic cells; type: cell-based, mouse; settings: proliferation inhibition, 72 hours, Cell Counting Kit-8, read-out: PIM1 IC50
Sequence (P11309 whole entry, change not shown): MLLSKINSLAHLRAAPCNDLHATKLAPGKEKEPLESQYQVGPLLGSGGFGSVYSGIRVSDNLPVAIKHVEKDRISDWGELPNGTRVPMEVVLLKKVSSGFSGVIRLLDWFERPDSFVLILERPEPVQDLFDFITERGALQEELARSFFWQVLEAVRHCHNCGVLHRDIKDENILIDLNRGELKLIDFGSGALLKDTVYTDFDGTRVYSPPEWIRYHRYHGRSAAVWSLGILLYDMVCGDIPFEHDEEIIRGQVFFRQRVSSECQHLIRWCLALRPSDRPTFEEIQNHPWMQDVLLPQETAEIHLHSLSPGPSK
Counter-ions that a name gives are not always drawn.
Numeric answer plus unit only.

Known GI50 results, listed for orientation:
query: Dear colleague, I am looking for the recorded GI50 of the following compound: CC(=O)N[C@H]1C[C@@H](CNc2cc(-c3n[nH]c(=O)o3)ccc2C(F)(F)F)C1(C)C [Example 184]
result: 880 nM

query: Quick check: GI50 of CCC(Nc1cc(-c2n[nH]c(=O)o2)ccc1C(F)(F)F)C1CCNCC1 (stereo not shown) [Example 56, hydrochloride] ?
result: 200 nM

query: For the compound shown here, CC1CC(CNc2cc(-c3n[nH]c(=O)o3)ccc2C(F)(F)F)CCN1 (stereo not shown) [Example 143, hydrochloride] , give the reported GI50.
result: 610 nM

Now for a further compound.
query: Sample C[C@H](Nc1cc(-c2n[nH]c(=O)o2)ccc1C(F)(F)F)[C@@H]1CCC[C@H](N)C1 [Example 191, hydrochloride] — what was its GI50?
result: 160 nM
